// data source = PubChem BioAssay

Assay: P. aeruginosa biofilm formation inhibitors, primary screen, PAO1 strain, BacTiter-Glo luminescence, LB-PBS (AID 1144)
Settings: 12 h, higher = more signal

| Compound | z-score |
| --- | --- |
| CCCCC(CC)C(O)C1C=CC2C(=O)N(Cc3ccccc3)C(=O)C2N1n1cnnc1 (centres undefined) | 0.999 |
| O=C1C[C@@](C(=O)NCC(F)(F)F)(c2ccc([N+](=O)[O-])cc2)[C@@H](c2ccc(CO)cc2I)N1C1CCCCC1 | -0.148 |
| COc1cc2c(cc1O)C(C1CC1)N(Cc1sc3ccccc3c1Cl)CC2 (centres undefined) | 1.26 |
| C[N+](C)(C)CCCCNC(=O)[C@H]1C[C@H]2C(=O)N3CCC[C@H]3C(=O)N2[C@H]1c1cccc(OCCO)c1 | -0.148 |
